Assay: melting temperature; fluorescence melt of hairpins on a sequencing array, two-state fit, raised by 9.35 °C to match UV melts
Conditions: sodium 0.088 M
Task for the reader: assign each of the following sequences its reported Tm.
# unit: °C | format: bare number

Name the recorded Tm of the item GAAATTGGAAACAATTTC (((((((....))))))) in your answer.
51.3

Name the recorded Tm of the item GTGCACCGAAAGGTTCAC (((.(((....))).))) in your answer.
50.5

Name the recorded Tm of the item GGGTGGGGAAACCCGCTC (.(.(((....))).).) in your answer.
49.1

Name the recorded Tm of the item GATCCGCGAAAGCGAATC (((.(((....))).))) in your answer.
49.2

* * *

Task for the reader: assign each of the following sequences its reported folding enthalpy.
Assay: folding enthalpy; higher = less favourable; fluorescence melt of hairpins on a sequencing array, two-state fit
Conditions: sodium 0.088 M
Quote the value and follow it with the unit of measurement.

Name the recorded folding enthalpy of the item GCGAAAGTTCGC ((((....)))) in your answer.
-19.6 kcal/mol

Name the recorded folding enthalpy of the item CAGGAGAAATCCTG (((((....))))) in your answer.
-19.7 kcal/mol

Name the recorded folding enthalpy of the item GGCGTAGGAAACTGCGTC (.((.((....)).)).) in your answer.
-19.5 kcal/mol

* * *

Test: melting temperature; fluorescence melt of hairpins on a sequencing array, two-state fit, raised by 9.35 °C to match UV melts
Conditions: sodium 0.088 M
Task for the reader: assign each of the following sequences its reported Tm.
# unit: °C | format: bare number

Name the recorded Tm of the item GGCGGAGGAAACTCCACC ((.((((....)))).)) in your answer.
48.9

Name the recorded Tm of the item GCAATGCGAAAGCATAGC ((.((((....)))).)) in your answer.
57.8

Name the recorded Tm of the item GATCCCCCTGGGATC ((((((...)))))) in your answer.
62.1

Name the recorded Tm of the item GGAAATCGAAAGATCTCC (((.(((....))).))) in your answer.
34.9

Name the recorded Tm of the item GCGGATGGCCGC ((((....)))) in your answer.
54.6

Name the recorded Tm of the item GGGTAGCCGAAAGGCCCC (((..(((....)))))) in your answer.
54

Name the recorded Tm of the item GGAAGTGAAAACTTCC ((((((....)))))) in your answer.
56.4

Name the recorded Tm of the item GATCTACACATAGATC ((((((....)))))) in your answer.
43.2

Name the recorded Tm of the item GCAACACGAAAGTGTGC (((.(((....)))))) in your answer.
60.2

Name the recorded Tm of the item GCAACGGGAAACCGCTAC (.(.(((....))).).) in your answer.
28.3

Name the recorded Tm of the item GCATGGCCGAAAGGCTGC (((..(((....)))))) in your answer.
53.3

Name the recorded Tm of the item GGACTCCGAAAGGATCC (((.(((....)))))) in your answer.
46.9

Name the recorded Tm of the item GCGAGGTCGAAAGACCGC (((..(((....)))))) in your answer.
54.3

Name the recorded Tm of the item GTCGCCGAAAGGCTAGAC ((((((....)))..))) in your answer.
47.1

Name the recorded Tm of the item ACGGGGAAACCCGT (((((....))))) in your answer.
65.1

Name the recorded Tm of the item GCCTTGGGAAACCGAGGC ((((.((....)).)))) in your answer.
56.6

Name the recorded Tm of the item GATCTGCGCACAGATC ((((((....)))))) in your answer.
52.8

Name the recorded Tm of the item GCGACAAATCGC ((((....)))) in your answer.
43.6

Name the recorded Tm of the item GGCAGTGGAAACGCTGCC (((((.(....).))))) in your answer.
62.7

* * *

Task for the reader: assign each of the following sequences its reported folding enthalpy.
Experiment: folding enthalpy; higher = less favourable; fluorescence melt of hairpins on a sequencing array, two-state fit
Conditions: sodium 0.088 M
# unit: kcal/mol | format: bare number

Name the recorded folding enthalpy of the item GCGGGCGAAAGCCGACGC ((((((....)))..))) in your answer.
-19.9

Name the recorded folding enthalpy of the item GGTTGCGAAAGCACAACC ((((((....)))..))) in your answer.
-19.6

Name the recorded folding enthalpy of the item GATTTGCGAAAGCACATC (((.(((....))).))) in your answer.
-19.9

* * *

Experiment: melting temperature; fluorescence melt of hairpins on a sequencing array, two-state fit, raised by 9.35 °C to match UV melts
Conditions: sodium 0.088 M
observation-type: Tm (°C)
# unit: °C | format: bare number

Name the recorded Tm of the item GCAAATCGAAAGATGTGC (((.(((....))).))) in your answer.
48.8

Name the recorded Tm of the item GATCAGATTCCTGATC ((((((....)))))) in your answer.
48.5

Name the recorded Tm of the item GATCCTTAAAAGGATC ((((((....)))))) in your answer.
49.7

Name the recorded Tm of the item GGGAGGGGAAACCTTCCC ((((.((....)).)))) in your answer.
50

Name the recorded Tm of the item GTGCGTCGAAAGACTCAC (((.(((....))).))) in your answer.
49.6

Name the recorded Tm of the item GATCCAACGCTGGATC ((((((....)))))) in your answer.
49.1

* * *

Task for the reader: assign each of the following sequences its reported Tm.
Test: melting temperature; fluorescence melt of hairpins on a sequencing array, two-state fit, raised by 9.35 °C to match UV melts
Details: sodium 0.088 M
# unit: °C | format: bare number

Name the recorded Tm of the item GGAGATCGAAAGATATCC (((.(((....))).))) in your answer.
49.6

Name the recorded Tm of the item GCATACGGAAACGCATGC ((((.((....)).)))) in your answer.
48.5

Name the recorded Tm of the item GAAGCACGAAAGTGTTC (((.(((....)))))) in your answer.
36.1

Name the recorded Tm of the item GGGGACCCGAAAGGGCCC (((..(((....)))))) in your answer.
62.3

Name the recorded Tm of the item GCGGCGGGAAACCGCCAC (.(((((....))))).) in your answer.
52.6

Name the recorded Tm of the item GAGTTTGGAAACAAACTC (((((((....))))))) in your answer.
58.3

Name the recorded Tm of the item GAAGTTGGAAACAATTTC (((.(((....))).))) in your answer.
35

Name the recorded Tm of the item GGCTTCGAAAGAAGAGCC ((((((....)))..))) in your answer.
45.3

Name the recorded Tm of the item GACTCGACGAAAGTCGTC (((..(((....)))))) in your answer.
31.4

Name the recorded Tm of the item GCTGAGCGAAAGCTTTGC ((..(((....)))..)) in your answer.
47.9

Name the recorded Tm of the item GAGGCAGGAAACCGCCTC (((((.(....).))))) in your answer.
54.9

Name the recorded Tm of the item CGCTAGCGGAAACGCGCG (((..(((....)))))) in your answer.
52.7

* * *

Assay: folding enthalpy; higher = less favourable; fluorescence melt of hairpins on a sequencing array, two-state fit
Conditions: sodium 0.088 M
Task for the reader: assign each of the following sequences its reported folding enthalpy.
# unit: kcal/mol | format: bare number

Name the recorded folding enthalpy of the item TTCCGGAAACGGAA (((((....))))) in your answer.
-18.6

Name the recorded folding enthalpy of the item GGATTCCGAAAGGATCC (((.(((....)))))) in your answer.
-29.1

Name the recorded folding enthalpy of the item GCTATGCGAAAGCTTTGC ((.(.((....)).).)) in your answer.
-18.2

Name the recorded folding enthalpy of the item GTTTACCCGAAAGGGAAC (((..(((....)))))) in your answer.
-9.41

Name the recorded folding enthalpy of the item GGCGTACGAAAGTAGCC (((.(((....)))))) in your answer.
-32.6

Name the recorded folding enthalpy of the item GTTACCGAAAGGTCAAC ((((((....))).))) in your answer.
-13.4

Name the recorded folding enthalpy of the item GACGACGAAAGTCGGGTC ((((((....)))..))) in your answer.
-12.8

Name the recorded folding enthalpy of the item GATCTTCGAGAAGATC ((((((....)))))) in your answer.
-42

Name the recorded folding enthalpy of the item GGACTAGGAAACTGGTTC (.((.((....)).)).) in your answer.
-13.1

Name the recorded folding enthalpy of the item GCTATTCCGAAAGGAAGC (((..(((....)))))) in your answer.
-14.7

Name the recorded folding enthalpy of the item GTACGCGGAAACGCACAC ((..(((....)))..)) in your answer.
-13.8

Name the recorded folding enthalpy of the item GATCTGTTACCAGATC ((((((....)))))) in your answer.
-42.4

Name the recorded folding enthalpy of the item GAGGTGCGAAAGCAACTC (((.(((....))).))) in your answer.
-26.2

Name the recorded folding enthalpy of the item GATGACGAAAGTCTTATC ((((((....)))..))) in your answer.
-12.4

Name the recorded folding enthalpy of the item GATCCAGGCTTGGATC ((((((....)))))) in your answer.
-43.8

Name the recorded folding enthalpy of the item GCAGGTCGAAAGACTTGC (((.(((....))).))) in your answer.
-41.2

Name the recorded folding enthalpy of the item GAGGGTCCGAAAGGACTC (((..(((....)))))) in your answer.
-9.51
